The origin of these recorded values is patent US20200131669A1.

# protocol: Caco-2 membrane permeability, improved method as used in the following Examples (96-well, 20 to 24 h preincubation)
# Assay type: in vitro ADME
# conditions: human, Caco-2, Caco-2
# Method: In the following Examples, membrane permeability was measured in accordance with the improved method established as described above. […] Each well was shaken at 5% CO2, 37° C., and 80 rpm, and 180 minutes after the initiation, the sample on the basal side was collected and the permeation amount was measured by LC/MS. The membrane permeability coefficient (Papp) was calculated from the permeation amount. […]
Starred links: 1 amine or outer side, 2 acyl side, 3 side chain; linkers in the order of their positions; H or OH if unused. Positions of bridges follow the written chain, without caps; N, C: chain ends. Non-standard residues stand in square brackets, D forms with d. Residues, ends and D or L forms follow the SMILES beside them. *: point of attachment. NMeAbu(3,3-F2-piperidino) = CN[C@@H](CCN1CCCC(F)(F)C1)C(=O)O; X14 = O=C([C@H](CCc1ccccc1Cl)N[*:1])[*:2]; X9 = O=C(CN(CCOc1ccccc1)[*:1])[*:2]; X3 = O=C([C@H](CCCCO)N[*:1])[*:2]; Hyp = O=C(O)[C@@H]1C[C@@H](O)CN1; NMeF = CN[C@@H](Cc1ccccc1)C(=O)O; NMeGABA = CN(CCCC(=O)[*:2])[*:1]; NMeL = CN[C@@H](CC(C)C)C(=O)O; dNMeL = CN[C@H](CC(C)C)C(=O)O; NMeNva = CCC[C@H](NC)C(=O)O; NMeV = CN[C@H](C(=O)O)C(C)C; NMeAbu = CC[C@H](NC)C(=O)O; NMeA = CN[C@@H](C)C(=O)O; Piperidide = C1CCN(*)CC1; Me2NCH2CH2 = CN(C)CC*; Isopentyl = CC(C)CC*; NPrGly = CCCNCC(=O)O; Sar = CNCC(=O)O; tBu = CC(C)(C)*; CHF2 = FC(F)*; Propyl = CCC*
What Papp A→B at 180 min was measured for each of the following?
Give bare numbers, in ×10⁻⁶ cm/s.

compound	quantity.kind	unit.name	reported.measurement
CCCN1CC(=O)N(C)[C@@H](CC(C)C)C(=O)N[C@@H](COC(C)(C)C)C(=O)N(C)[C@@H](Cc2ccccc2)C(=O)N(C)[C@@H](C(C)C)C(=O)N[C@H](C(=O)N2CCCCC2)CC(=O)N[C@H](C(C)C)C(=O)N(C)[C@@H](Cc2ccccc2)C(=O)N[C@@H](COCCN(C)C)C(=O)N(C)[C@@H](CC(C)C)C(=O)N[C@@H]([C@@H](C)O)C1=O [pd50] ([dV][NMeF]S(Me2NCH2CH2)[NMeL]T[NPrGly][NMeL]S(tBu)[NMeF][NMeV]D-Piperidide; lactam N-11)	Papp A→B at 180 min	×10⁻⁶ cm/s	0.15
CC(C)C[C@@H]1NC(=O)[C@H](CC(C)C)N(C)C(=O)CN(C)C(=O)[C@H]([C@@H](C)O)NC(=O)[C@H](CC(C)C)N(C)C(=O)[C@H](CCc2ccccc2Cl)NC(=O)[C@H](C)N(C)C(=O)[C@@H](C(C)C)NC(=O)C[C@@H](C(=O)N2CCCCC2)NC(=O)[C@H](C(C)C)N(C)C(=O)[C@H](Cc2ccccc2)N(C)C1=O [pd351] ([dV][NMeA][X14][NMeL]T[Sar][NMeL]L[NMeF][NMeV]D-Piperidide; lactam N-11)	Papp A→B at 180 min	×10⁻⁶ cm/s	1.9

Required: Papp A→B at 180 min, one value per compound below.
1. CC(C)C[C@@H]1NC(=O)[C@H](Cc2ccccc2)N(C)C(=O)[C@@H](C(C)C)NC(=O)C[C@@H](C(=O)N2CCCCC2)NC(=O)[C@H](C(C)C)N(C)C(=O)[C@H](Cc2ccccc2)N(C)C(=O)[C@H](COC(C)(C)C)NC(=O)[C@H](CC(C)C)N(C)C(=O)CN(C)C(=O)[C@H](CCCCO)NC(=O)[C@H](CC(C)C)N(C)C1=O [pd450] ([dV][NMeF]L[NMeL][X3][Sar][NMeL]S(tBu)[NMeF][NMeV]D-Piperidide; lactam N-11)
2. CCC[C@H]1C(=O)N[C@@H](CC(C)C)C(=O)N(C)[C@@H](CC(C)C)C(=O)N[C@@H]([C@@H](C)O)C(=O)N2C[C@H](OCC)C[C@H]2C(=O)N(C)[C@@H](CC(C)C)C(=O)N[C@@H]([C@@H](C)CC)C(=O)N(C)[C@@H](CC(C)C)C(=O)N2CCC[C@H]2C(=O)N[C@H](C(=O)N2CCCCC2)CC(=O)N(C)[C@H](CC(C)C)C(=O)N1C [pd381] ([dNMeL][NMeNva]L[NMeL]T[Hyp](Et)[NMeL]I[NMeL]PD-Piperidide; lactam N-11)
3. CCCOC[C@@H]1NC(=O)[C@H](Cc2ccccc2)N(C)C(=O)[C@H](Cc2ccccc2)N(C)C(=O)[C@H](C(C)C)NC(=O)[C@H](CC(C)C)N(C)C(=O)CCCN(C)C(=O)C[C@@H](C(=O)N2CCCCC2)NC(=O)[C@H](CC(C)C)N(C)C(=O)[C@H](CC(C)C)N(C)C(=O)[C@H]([C@@H](C)O)NC(=O)[C@H](CC(C)C)N(C)C1=O [pd328] ([NMeGABA][NMeL]V[NMeF][NMeF]S(Propyl)[NMeL]T[NMeL][NMeL]D-Piperidide; lactam N-11)
4. CC(C)C[C@@H]1NC(=O)[C@H](Cc2ccccc2)N(C)C(=O)[C@H](Cc2ccccc2)N(C)C(=O)[C@H](CC(C)C)NC(=O)[C@H](CC(C)C)N(C)C(=O)CCCN(C)C(=O)C[C@@H](C(=O)N2CCCCC2)NC(=O)[C@H](C)N(C)C(=O)[C@H](CCN2CCCC(F)(F)C2)N(C)C(=O)[C@H]([C@@H](C)O)NC(=O)[C@H](CC(C)C)N(C)C1=O [pd390] ([NMeGABA][NMeL]L[NMeF][NMeF]L[NMeL]T[NMeAbu(3,3-F2-piperidino)][NMeA]D-Piperidide; lactam N-11)
5. CC(C)CCOC[C@@H]1NC(=O)[C@H](CC(C)C)N(C)C(=O)CCCN(C)C(=O)C[C@@H](C(=O)N2CCCCC2)NC(=O)[C@H](CC(C)C)N(C)C(=O)[C@H](C)N(C)C(=O)[C@H]([C@@H](C)O)NC(=O)[C@H](CC(C)C)N(C)C(=O)[C@H](COC(C)(C)C)NC(=O)[C@H](Cc2ccccc2)N(C)C(=O)[C@H](Cc2ccccc2)N(C)C1=O [pd303] ([NMeGABA][NMeL]S(Isopentyl)[NMeF][NMeF]S(tBu)[NMeL]T[NMeA][NMeL]D-Piperidide; lactam N-11)
6. CC(C)C[C@@H]1NC(=O)C[C@@H](C(=O)N2CCCCC2)NC(=O)[C@H](CC(C)C)N(C)C(=O)[C@H](CC(C)C)N(C)C(=O)[C@H](Cc2ccc(OC(F)F)cc2)NC(=O)[C@H](C)N(C)C(=O)CN(C)C(=O)[C@H]([C@@H](C)O)NC(=O)[C@H](CC(C)C)N(C)C(=O)[C@H](C(C)C)NC(=O)[C@H](Cc2ccccc2)N(C)C1=O [pd477] (L[NMeF]V[NMeL]T[Sar][NMeA]Y(CHF2)[NMeL][NMeL]D-Piperidide; lactam N-11)

output:
1.8
5.6
2.3
2
1
2.2

get_value(item= CC[C@H]1C(=O)N[C@@H]([C@@H](C)O)C(=O)N(C)CC(=O)N(C)[C@@H](Cc2ccccc2)C(=O)N(C)[C@@H](CC)C(=O)N[C@@H](COC(C)(C)C)C(=O)N(C)[C@@H](CC(C)C)C(=O)N[C@H](C(=O)N2CCCCC2)CC(=O)N(CCOc2ccccc2)CC(=O)N(C)[C@@H](CC(C)C)C(=O)N[C@@H](CC(C)C)C(=O)N1C [pd421] ([X9][NMeL]L[NMeAbu]T[Sar][NMeF][NMeAbu]S(tBu)[NMeL]D-Piperidide; lactam N-11) , readout=Papp A→B at 180 min) returns 1.3
